Form field: logD (one value per entry).
Assay: Lipophilicity, log D of the compound at pH 7.4
Conditions: buffer
Measurement Name: logD

INSERT INTO assay_data (line_notation, result) VALUES
  ('CN1CCC(c2nc(-c3ccc(F)c(NS(C)(=O)=O)c3)c(-c3ccnc(NCC4CC4)n3)s2)CC1', 1.9),
  ('CN1CCC(c2nc(-c3cccc(S(C)(=O)=O)c3)c(-c3ccnc(Nc4ccc(N5CCNCC5)cc4)n3)s2)CC1', 0.3);
